These data points were gathered from patent US6319702A.

- Experimental details: Stability and biodistribution of prodrugs in vivo (HPLC of plasma and tissues)
- Parameters: species or system mice (CD-1 nude; BALB/C where indicated)
- Setup conditions: mouse, liver, 50 mg/kg, LIVER, 120 min, 50 mg/kg i.p. or i.v., CD-1 nude mice; read-out: stability: percentage of material observed as intact prodrug, liver
Measured property: remaining at 2 h (%)
Give the number; % is assumed, so skip it.

# annotated cases, reported remaining at 2 h shown
- Compound: "Cc1nc2ccc3ccc(CNc4ccc(C(=O)N[C@@H](CCC(=O)O)C(=O)N[C@@H](Cc5ccccc5I)C(=O)O)c(F)c4)cc3c2c(=O)[nH]1 [Prodrug 5]"
  Measured property: "remaining at 2 h"
  Reading unit: "%"
  Value measured: 41
- Compound: "CN(Cc1cnc2nc(N)nc(N)c2n1)c1ccc(C(=O)N[C@@H](CCC(=O)O)C(=O)N[C@@H](Cc2cccc(C3CCC3)c2)C(=O)O)cc1 [Prodrug 11]"
  Measured property: "remaining at 2 h"
  Reading unit: "%"
  Value measured: 73.3
- Compound: "CN(Cc1cnc2nc(N)nc(N)c2n1)c1ccc(C(=O)N[C@@H](CCC(=O)O)C(=O)N[C@@H](Cc2cccc(C(C)(C)C)c2)C(=O)O)cc1 [Prodrug 12]"
  Measured property: "remaining at 2 h"
  Reading unit: "%"
  Value measured: 89.2

-- ask Give its remaining at 2 h value. Item: CN(Cc1cnc2nc(N)nc(N)c2n1)c1ccc(C(=O)N[C@@H](CCC(=O)O)C(=O)N[C@@H](Cc2ccc(O)c(C3CCCC3)c2)C(=O)O)cc1 [Prodrug 13]
-- reply 100

-- ask Next record, please: CN(Cc1cnc2nc(N)nc(N)c2n1)c1ccc(C(=O)N[C@@H](CCC(=O)O)C(=O)N[C@@H](CC(=O)O)C(=O)O)cc1 [Prodrug 6]
-- reply 93

-- ask Next record, please: Cc1nc2ccc3ccc(CNc4ccc(C(=O)N[C@@H](CCC(=O)O)C(=O)N[C@@H](Cc5cccc6ccccc56)C(=O)O)c(F)c4)cc3c2c(=O)[nH]1 [Prodrug 3]
-- reply 74

-- ask Next record, please: CN(Cc1cnc2nc(N)nc(N)c2n1)c1ccc(C(=O)N[C@@H](CCC(=O)O)C(=O)N[C@@H](Cc2ccccc2)C(=O)O)cc1 [Prodrug 10, reference compound]
-- reply 7.55

-- ask Next record, please: Cc1nc2ccc3ccc(CNc4ccc(C(=O)N[C@@H](CCC(=O)O)C(=O)N[C@@H](Cc5ccccc5C(=O)O)C(=O)O)c(F)c4)cc3c2c(=O)[nH]1 [Prodrug 4]
-- reply 98

-- ask Next record, please: Nc1nc(N)c(CCCNc2ccc(C(=O)N[C@@H](CCC(=O)O)C(=O)N[C@@H](Cc3cccc(C4CCCC4)c3)C(=O)O)cc2)c(=O)[nH]1 [Prodrug 14]
-- reply 100

-- ask Next record, please: CN(Cc1cnc2nc(N)nc(N)c2n1)c1ccc(C(=O)N[C@@H](CCC(=O)O)C(=O)N[C@@H](Cc2ccccc2C2CCCC2)C(=O)O)cc1 [Prodrug 8]
-- reply 76

-- ask Next record, please: CN(Cc1cnc2nc(N)nc(N)c2n1)c1ccc(C(=O)N[C@@H](CCC(=O)O)C(=O)N[C@@H](Cc2cccc(C3CCCC3)c2)C(=O)O)cc1 [Prodrug 9]
-- reply 94

-- ask Next record, please: CN(Cc1cnc2nc(N)nc(N)c2n1)c1ccc(C(=O)N[C@@H](CCC(=O)O)C(=O)N[C@@H](Cc2ccccc2C(=O)O)C(=O)O)cc1 [Prodrug 7]
-- reply 89

-- ask Next record, please: Cc1nc2ccc3ccc(CNc4ccc(C(=O)N[C@@H](CCC(=O)O)C(=O)N[C@@H](CCC(=O)O)C(=O)O)c(F)c4)cc3c2c(=O)[nH]1 [Prodrug 1]
-- reply 97
